# Tested on: PC3 cells
# assay_protocol: EB1 Comet (microtubule disruption) assay
# Format: cell-based, human
# assay_context: Homo sapiens, PC-3, 1 h, 1 hour treatment, read-out: EB1 pLAC (converted)
reported_property: minimal effective concentration (µM)
The answer is to be given in µM; state only the numeric part.

compound="CCc1cc2ccc(C(C)(C#N)CC3CN(C)c4ccccc4O3)cc2[nH]c1=O (stereo not shown)" unit_tag=µM measured=1

Could you share which minimal effective concentration value was measured for C#Cc1cccc(CC(C)(C#N)c2ccc3cc(CC)c(=O)[nH]c3c2)n1 (stereo not shown) ? 0.1

Would you mind telling me what minimal effective concentration value was observed for CCc1cc2ccc(C(C)(C#N)Cc3cc(N(C)C)nc(Cl)n3)cc2[nH]c1=O (stereo not shown) ? 1

For CCc1cc2ccc(C(C)(C#N)Cc3ccc(Br)cc3)cc2[nH]c1=O (stereo not shown) , what is its reported minimal effective concentration? 3.16
